Value source: paper PMC8621456

# Tested on: H37Rv (katG^del)
# TEST_DESCRIPTION: microbe, parasite or virus in culture
# Format: cell-based
# CONDITION_CONTEXT: Mycobacterium tuberculosis, isoniazid mono-resistant strain
I'd be grateful if you could share measured MIC for these entries.
Give bare numbers, in µM.

Example compounds with recorded MIC:
I have this compound here, `C=C(C)[C@@H]1CC[C@]2(COS(=O)(=O)c3ccc(C)cc3)CC[C@]3(C)[C@H](CC[C@@H]4[C@@]5(C)CCCNC(C)(C)[C@@H]5CC[C@]43C)[C@@H]12` , and I need its recorded MIC.
4

Also need `C#CCNC(=O)[C@]12CC[C@@H](C(=C)C)[C@@H]1[C@H]1CC[C@@H]3[C@@]4(C)CCCNC(C)(C)[C@@H]4CC[C@@]3(C)[C@]1(C)CC2` , thanks.
4

Would you mind doing C=C(C)[C@@H]1CC[C@]2(C(=O)NC(CO)Cc3ccccc3)CC[C@]3(C)[C@H](CC[C@@H]4[C@@]5(C)CCCNC(C)(C)[C@@H]5CC[C@]43C)[C@@H]12 (stereo partly drawn) as well?
4

Would you kindly repeat that for `C=C(C)[C@@H]1CC[C@]2(C(=O)N3CCN(C)CC3)CC[C@]3(C)[C@H](CC[C@@H]4[C@@]5(C)CCCNC(C)(C)[C@@H]5CC[C@]43C)[C@@H]12` ?
1

Likewise for `C=C(C)[C@@H]1CC[C@]2(CN)CC[C@]3(C)[C@H](CC[C@@H]4[C@@]5(C)CCCNC(C)(C)[C@@H]5CC[C@]43C)[C@@H]12` ?
4

Next compound, please.
What does the record list as MIC for `C=C(C)[C@@H]1CC[C@]2(COC(=O)c3ccccc3C(=O)O)CC[C@]3(C)[C@H](CC[C@@H]4[C@@]5(C)CCCNC(C)(C)[C@@H]5CC[C@]43C)[C@@H]12` ?
8
